Catalogue of koff readings, one per entry.
- system-under-test: T1, Human ST2 (human, UniProt Q01638 19-328, limits assumed)
- T1 construct: also called human ST2 protein; Interleukin 1 receptor-like 1
- T1 sequence (looked up): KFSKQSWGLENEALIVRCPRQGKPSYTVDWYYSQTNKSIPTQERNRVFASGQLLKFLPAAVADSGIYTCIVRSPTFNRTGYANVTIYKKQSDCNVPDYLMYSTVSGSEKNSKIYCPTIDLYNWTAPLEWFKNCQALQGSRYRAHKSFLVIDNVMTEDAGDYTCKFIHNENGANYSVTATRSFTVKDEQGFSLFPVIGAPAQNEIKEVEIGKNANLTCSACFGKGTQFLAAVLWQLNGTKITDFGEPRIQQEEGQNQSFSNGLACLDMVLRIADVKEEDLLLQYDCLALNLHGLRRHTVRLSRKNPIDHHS
- assay-overview: SPR (Carterra), antibody immobilized, ST2 analyte
Use s⁻¹ as the unit, but write only the number.

1) Human ST2 IgG1 Antibody 57 (antibody, V domains shown, IgG1; also called ST2 Antibody 57) VH: QVQLVQSGAEVKKPGASVKVSCKASGYTFTGYYMHWVRQAPGQGLEWMGVINPSGGSTSYAQKFQGRVTMTRDTSTSTVYMELSSLRSEDTAVYYCARGDYYYGSGSDYYYYYGMDVWGQGTLVTVSS VL: DIQMTQSPSSLSASVGDRVTITCRASQGVTSWLAWYQQKPGKAPKLLIYAASTLQSGVPSRFSGSGSGTDFTLTISSLQPEDFATYYCQQANSFPLTFGGGTKVEIKR : 0.072
2) Human ST2 IgG1 Antibody 19 (antibody, V domains shown, IgG1; also called ST2 Antibody 19) VH: EVQLLESGGGLVQPGGSLRLSCAASGFSFSHAWMSWVRQAPGKGLEWVSVIHSGGSTFYADSVKGRFTISRDNSKNTLYLQMNSLRAEDTAVYYCARIGKGGGFDYWGQGTLVTVSS VL: DIQMTQSPSSLSASVGDRVTITCRASQDIGSWLAWYQQKPGKAPKLLIYAASSLQSGVPSRFSGSGSGTDFTLTISSLQPEDFATYYCQQSYSTPPTFGQGTKVEIKR : 0.062
3) Human ST2 IgG1 Antibody 23 (antibody, V domains shown, IgG1; also called ST2 Antibody 23) VH: EVQLLESGGGLVKPGGSLRLSCAASGFTFSSYWMHWVRQAPGKGLEWVSSISSRSSYIYYADSVKGRFTISRDDSKNTLYLQMNSLKTEDTAVYYCAREGNGMDVWGQGTTVTVSS VL: DIQMTQSPSSLSASVGDRVTITCQASQDIGSYLNWYQQKPGKAPKLLIYAASSLQSGVPSRFSGSGSGTDFTLTISSLQPEDFATYYCLQSYSTPFTFGGGTKVEIKR : 0.1

Query (binder): Human ST2 IgG1 Antibody 25 (antibody, V domains shown, IgG1; also called ST2 Antibody 25) VH: QVQLVQSGAEVKKPGSSVKVSCKASGGTFSNYAISWVRQAPGQGLEWMGWISAYNGNTNYAQKFQGRVTMTRDTSTSTVYMELSSLRSEDTAVYYCARSTNALDYWGQGTLVTVSS VL: DIQMTQSPSSLSASVGDRVTITCRASQGIRSNLDWYQQKPGKAPKLLISIVSNLGSGVPSRFSGSGSGTDFTLTISSLQPEDFATYYCLQHNSNPPTFGGGTKVEIKR ; field requested: koff
0.03

Can you handle Human ST2 IgG1 Antibody 70 (antibody, V domains shown, IgG1; also called ST2 Antibody 70) VH: QVQLVQSGAEVKKPGSSVKVSCKASGYAFTDYFIHWVRQAPGQGLEWMGGIIPIFGTANYAQKFQGRVTITADKSTSTAYMELSSLRSEDTAVYYCARVAYGAFDIWGQGTMVTVSS VL: EIVMTQSPATLSVSPGERATLSCRASQSVSSSYLAWYQQKPGQAPRLLIYGASTRATGIPARFSGSGSGTEFTLTISSLQSEDFAVYYCQQYNNWPLTFGGGTKVEIKR next?
0.099
